Each record here notes measured AC35.
tested on: P. falciparum 3D7 in RBCs, SYBR Green DNA fluorescence; assay: growth inhibition of P. falciparum 3D7, dose response, 3D7 strain, red blood cells, SYBR Green, cherry-picked (AID 652047)

[
  {
    "Compound": "O=C(CCCSc1ccccc1)Nc1nc(-c2ccccn2)cs1",
    "Property": "AC35",
    "Val": "6.69 µM"
  },
  {
    "Compound": "CCCCOC(=O)/C=C/c1ccc(OC(=O)OC)c(OC(=O)OC)c1",
    "Property": "AC35",
    "Val": "14.7 µM"
  },
  {
    "Compound": "O=C(OCC(=O)C12CC3CC(CC(C3)C1)C2)c1ccc(O)cc1",
    "Property": "AC35",
    "Val": "44.4 µM"
  },
  {
    "Compound": "CCOC(=O)c1cc2c(=Cc3ccc(N(C)C)cc3)c3ccccc3n2[n+]1C",
    "Property": "AC35",
    "Val": "1.94 µM"
  }
]

Exam item: Field: AC35 (P. falciparum 3D7 in RBCs, SYBR Green DNA fluorescence). Entry: Cc1ccoc1C(=O)Nc1cccc(Oc2ccccc2)c1
Marked response: 10.4 µM

Exam item: Field: AC35 (P. falciparum 3D7 in RBCs, SYBR Green DNA fluorescence). Entry: C=CCN(CC=C)C(=S)NC(=O)c1ccc(C)c(Br)c1
Marked response: 6.98 µM

Exam item: Field: AC35 (P. falciparum 3D7 in RBCs, SYBR Green DNA fluorescence). Entry: COc1ccc(Sc2nc(-c3ccccn3)ncc2OC)cc1
Marked response: 1.26 µM

Exam item: Field: AC35 (P. falciparum 3D7 in RBCs, SYBR Green DNA fluorescence). Entry: CC(=O)NC(c1ccc(C)cc1)c1cc([N+](=O)[O-])c2cccnc2c1O (stereo unspecified)
Marked response: 10.1 µM

Exam item: Field: AC35 (P. falciparum 3D7 in RBCs, SYBR Green DNA fluorescence). Entry: CC(C)(C)C(=O)C(Oc1ccc(Cl)cc1)n1cncn1 (stereo unspecified)
Marked response: 36.6 µM

Exam item: Field: AC35 (P. falciparum 3D7 in RBCs, SYBR Green DNA fluorescence). Entry: CCC(=O)NC(c1ccco1)c1cc(Cl)c2cccnc2c1O (stereo unspecified)
Marked response: 0.484 µM

Exam item: Field: AC35 (P. falciparum 3D7 in RBCs, SYBR Green DNA fluorescence). Entry: Cc1ccc2c(C)c3ccc4ccccc4c3c[n+]2c1
Marked response: 0.0368 µM

====

assay: growth inhibition of P. falciparum 3D7, dose response, 3D7 strain, red blood cells, SYBR Green, cherry-picked (AID 652047);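 for activity change, negative = inhibition: 0% = untreated neutral control wells and -100% = mefloquine positive control wells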; details: P. falciparum 3D7 in RBCs, SYBR Green DNA fluorescence; at 50 µM (top of the series)
Lab note: compare activity change, negative = inhibition against -10%. Equal or greater, write met. Smaller, write not met.

Here's what some known entries look like.
[
  {
    "Compound": "O=C(c1ccc(Cl)cc1)N1CCN(c2ccc(F)cc2)CC1",
    "Label": "not met"
  },
  {
    "Compound": "CC(C)CSc1n[nH]c(=S)s1",
    "Label": "met"
  }
]

Exam item: Given O=C1N(c2ccc(Cl)cc2)C(c2cccnc2)N2CCCN12 (stereo unspecified) , state whether its activity change, negative = inhibition is at least -10%.
Marked response: met

Exam item: Given CCC(Oc1ccc(Br)cc1Cl)C(=O)Nc1nnc(C2CC2)s1 (stereo unspecified) , state whether its activity change, negative = inhibition is at least -10%.
Marked response: not met

====

tested on: P. falciparum 3D7 in RBCs, SYBR Green DNA fluorescence; experiment: growth inhibition of P. falciparum 3D7, dose response, 3D7 strain, red blood cells, SYBR Green, cherry-picked (AID 652047)
Each record here notes measured AC35.

Some entries whose results are on file:
[
  {
    "Molecule": "COc1cnc(-c2ccccn2)nc1Sc1ccccc1",
    "AC35": "4.67 µM"
  },
  {
    "Molecule": "Cc1cc(-c2ccccc2)n(-c2cc(N/N=C/c3ccccc3O)ncn2)n1",
    "AC35": "3.99 µM"
  },
  {
    "Molecule": "Cc1ccc(Sc2ccc(NC(=O)CCl)cc2)cc1C",
    "AC35": "0.422 µM"
  },
  {
    "Molecule": "Cc1cccc2sc(NNC(=O)c3ccc(S(=O)(=O)N4CCCC(C)C4)cc3)nc12 (stereo not given)",
    "AC35": "3.46 µM"
  },
  {
    "Molecule": "Cc1ccc2oc(-c3ccccc3)c(C(=O)O)c(=O)c2c1",
    "AC35": "16.2 µM"
  },
  {
    "Molecule": "Cc1nc(SCc2ccc(OCCC(C)C)cc2)n[nH]1",
    "AC35": "16.5 µM"
  },
  {
    "Molecule": "O=C(O)c1ccccc1NC(c1ccccc1)c1ccc2cccnc2c1O (stereo not given)",
    "AC35": "10.8 µM"
  },
  {
    "Molecule": "O=C1c2cc(F)ccc2-n2c1nc1ccccc1c2=O",
    "AC35": "< 0.0235 µM"
  }
]

Exam item: Endpoint output: AC35 of CC(C)=CCc1c(O)ccc(C(=O)Cc2ccccc2)c1O . Value?
Marked response: 16.4 µM

Exam item: Endpoint output: AC35 of CCc1ccc(CN(C)C(=O)c2cc(COc3cccc(C(F)(F)F)c3)on2)nc1 . Value?
Marked response: 24.6 µM

====

test: growth inhibition of P. falciparum 3D7, dose response, 3D7 strain, red blood cells, SYBR Green, cherry-picked (AID 652047);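 for activity change, negative = inhibition: 0% = untreated neutral control wells and -100% = mefloquine positive control wells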; conditions: P. falciparum 3D7 in RBCs, SYBR Green DNA fluorescence; at 50 µM (top of the series)
Each record here notes measured activity change, negative = inhibition.
A number alone suffices; assume %.

[
  {
    "Compound": "CCCCc1ccc(-n2c(Cc3cccs3)n[nH]c2=S)cc1",
    "Val": -28
  },
  {
    "Compound": "O=C1Nc2c(Br)cccc2C1=O",
    "Val": -4.37
  },
  {
    "Compound": "CCCCC(CC)c1nnc(NC(=O)c2cccs2)s1 (configuration not stated)",
    "Val": -12.7
  },
  {
    "Compound": "Cc1ccc(C(=O)C(SC(C)(C)C)n2cncn2)cc1 (configuration not stated)",
    "Val": -13
  },
  {
    "Compound": "O=C(c1ccccc1)N1C(=O)C(c2ccccc2)Oc2ccccc21 (configuration not stated)",
    "Val": -36.8
  }
]

Exam item: Endpoint output: activity change, negative = inhibition of COC(=O)COC(=O)c1ccccc1NC(=O)c1ccccc1 . Value?
Marked response: -21

Exam item: Endpoint output: activity change, negative = inhibition of COC(OC)c1ccc(C#N)c(SCc2ccccc2)n1 . Value?
Marked response: -2.94

Exam item: Endpoint output: activity change, negative = inhibition of COc1ccccc1C1CCN(C(=O)c2ccc(Cl)cc2)CC1 . Value?
Marked response: -15.2

Exam item: Endpoint output: activity change, negative = inhibition of COc1cc2c(c(OC)c1OC)-c1ccc(O)c(=O)cc1[C@@H](NC(C)=O)CC2 . Value?
Marked response: -10.9

Exam item: Endpoint output: activity change, negative = inhibition of O=C(O)CSc1nc(-c2ccc(Cl)cc2)nc2c1oc1ccccc12 . Value?
Marked response: -31.1

Exam item: Endpoint output: activity change, negative = inhibition of CCCCn1c(=O)c(C(=O)NCc2ccncc2)c(O)c2ccccc21 . Value?
Marked response: 2.98

Exam item: Endpoint output: activity change, negative = inhibition of Nc1nc(-c2ccc(Oc3ccccc3)cc2)cs1 . Value?
Marked response: -0.359

====

assay: growth inhibition of P. falciparum 3D7, dose response, 3D7 strain, red blood cells, SYBR Green, cherry-picked (AID 652047);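 for activity change, negative = inhibition: 0% = untreated neutral control wells and -100% = mefloquine positive control wells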; conditions: P. falciparum 3D7 in RBCs, SYBR Green DNA fluorescence; at 50 µM (top of the series)
Property: activity change, negative = inhibition (%)
A number alone suffices; assume %.

[
  {
    "Compound": "CC12CCC(O)CC1=CCC1C2CCC2(C)C3=NN=CC3CC12 (stereo unspecified)",
    "Unit tag": "%",
    "activity change, negative = inhibition": -27.5
  }
]

Exam item: Endpoint output: activity change, negative = inhibition of CC1=NN(C(N)=S)C(=O)C1N=Nc1cccc(Cl)c1C (stereo unspecified) . Value?
Marked response: -20.7

Exam item: Endpoint output: activity change, negative = inhibition of Cc1cc(Nc2ccccc2)nn1C(=O)c1ccccc1 . Value?
Marked response: -5.49

Exam item: Endpoint output: activity change, negative = inhibition of Cc1cccc(C)c1N1C(=O)C2ON(c3ccccc3)C(c3ccncc3)C2C1=O (stereo unspecified) . Value?
Marked response: -3.22

Exam item: Endpoint output: activity change, negative = inhibition of CNc1cc(CSC)nc(SCc2ccc(Cl)cc2Cl)n1 . Value?
Marked response: 14.7

Exam item: Endpoint output: activity change, negative = inhibition of FC(F)(F)c1cccc(N2CCc3cn[nH]c32)c1 . Value?
Marked response: -2.82

Exam item: Endpoint output: activity change, negative = inhibition of CCn1c(CNc2ccc(Cl)cc2)nnc1SCc1ccc(Cl)cc1 . Value?
Marked response: -49.2

Exam item: Endpoint output: activity change, negative = inhibition of CC1(C)CC(=O)C(N=Nc2ccc3ncsc3c2)=C(O)C1 . Value?
Marked response: -15.1
